- Test system: 699152-130-R-J1-PDC complex spheroid growth
- experimental_protocol: Anticancer human tumor 699152-130-R-J1-PDC patient-derived pancreatic carcinoma cell line growth inhibition [AhR]
- assay_conditions: second compound 0.316 µM; first compound 0.1 µM; stronger effect = lower value
assay_metric: viability, T/C

CC1(C)CCC(CN2CCN(c3ccc(C(=O)NS(=O)(=O)c4ccc(NCC5CCOCC5)c([N+](=O)[O-])c4)c(Oc4cnc5[nH]ccc5c4)c3)CC2)=C(c2ccc(Cl)cc2)C1 + CC(CO)NC(=O)c1cc(-c2ccc(Cl)cc2)nn(-c2cnn(C)c2)c1=O :: 109%
Nc1ncn(C2CC(O)C(CO)O2)c(=O)n1 (stereo not drawn) + CC(CO)NC(=O)c1cc(-c2ccc(Cl)cc2)nn(-c2cnn(C)c2)c1=O :: 87.2%

Okay, now this molecule:
input: Looking for the measured viability, T/C of COc1cc(C2c3cc4c(cc3C(OC3OC5COC(C)OC5C(O)C3O)C3COC(=O)C23)OCO4)cc(OC)c1O (stereo not drawn) + Cc1ccccc1N=Nc1ccc(NC(=O)c2ccnn2C)c(C)c1 , can you help?
output: 88.8%

----------
- Test system: 699152-130-R-J1-PDC complex spheroid growth
- experimental_protocol: Anticancer human tumor 699152-130-R-J1-PDC cell line growth inhibition [AhR];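 also: compound exposure lasted 7 days after spheroids had grown for 3 days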
- assay_conditions: curve of first compound; second compound 0.1 µM
pIC50: −log10 of the molar value.
Property: pIC50; scope: individual compounds

Some entries whose results are on file:
CC1COCCN1c1cc(-c2ccnn2C)c2ccnc(-c3ccn[nH]3)c2n1 (centres undefined) + Cc1ccccc1N=Nc1ccc(NC(=O)c2ccnn2C)c(C)c1 :: < 6.00
CC(C)c1c(-c2ccccc2)nc2c(C#N)c[nH]n2c1=O + Cc1cncc(-c2nc(NCCc3c[nH]c4ccccc34)c3ncn(C(C)C)c3n2)c1 :: < 5.00
Nc1ncn(C2CC(O)C(CO)S2)c(=O)n1 (centres undefined) + Cc1cncc(-c2nc(NCCc3c[nH]c4ccccc34)c3ncn(C(C)C)c3n2)c1 :: < 6.52

Okay, now this compound:
input: Looking for the measured pIC50 of O=C(C=Cc1cccc(S(=O)(=O)Nc2ccccc2)c1)NO + Cc1cncc(-c2nc(NCCc3c[nH]c4ccccc34)c3ncn(C(C)C)c3n2)c1 , can you help?
output: < 5.00

----------
- System: 699152-130-R-J1-PDC complex spheroid growth
- experimental_protocol: Anticancer human tumor 699152-130-R-J1-PDC cell line growth inhibition [AhR];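 also: compound exposure lasted 7 days after spheroids had grown for 3 days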
- assay_conditions: second compound 3.16 µM; first compound 0.03 µM; stronger effect = lower value
Property: viability, T/C; scope: individual compounds
Field: numeric (%). Do not append units.

input: Looking for the measured viability, T/C of CCc1c2c(nc3ccc(O)cc13)-c1cc3c(c(=O)n1C2)COC(=O)[C@]3(O)CC + Cc1ccccc1N=Nc1ccc(NC(=O)c2ccnn2C)c(C)c1 , can you help?
output: 45.6

input: Follow-up entry: CCc1c2c(nc3ccc(O)cc13)-c1cc3c(c(=O)n1C2)COC(=O)[C@]3(O)CC + CC(CO)NC(=O)c1cc(-c2ccc(Cl)cc2)nn(-c2cnn(C)c2)c1=O
output: 45.3

input: Follow-up entry: CCc1c2c(nc3ccc(O)cc13)-c1cc3c(c(=O)n1C2)COC(=O)[C@]3(O)CC + Cc1cncc(-c2nc(NCCc3c[nH]c4ccccc34)c3ncn(C(C)C)c3n2)c1
output: 43.3

input: Follow-up entry: CCN(c1cc(-c2ccc(CN3CCOCC3)cc2)cc(C(=O)NCc2c(C)cc(C)[nH]c2=O)c1C)C1CCOCC1 + CC(CO)NC(=O)c1cc(-c2ccc(Cl)cc2)nn(-c2cnn(C)c2)c1=O
output: 89.1

input: Follow-up entry: CCN(c1cc(-c2ccc(CN3CCOCC3)cc2)cc(C(=O)NCc2c(C)cc(C)[nH]c2=O)c1C)C1CCOCC1 + Cc1ccccc1N=Nc1ccc(NC(=O)c2ccnn2C)c(C)c1
output: 104

input: Follow-up entry: O=C(C=Cn1cnc(-c2cc(C(F)(F)F)cc(C(F)(F)F)c2)n1)NNc1cnccn1 + Cc1cncc(-c2nc(NCCc3c[nH]c4ccccc34)c3ncn(C(C)C)c3n2)c1
output: 113

input: Follow-up entry: O=C(C=Cn1cnc(-c2cc(C(F)(F)F)cc(C(F)(F)F)c2)n1)NNc1cnccn1 + Cc1ccccc1N=Nc1ccc(NC(=O)c2ccnn2C)c(C)c1
output: 115

----------
- System: 699152-130-R-J1-PDC complex spheroid growth
- experimental_protocol: Anticancer human tumor 699152-130-R-J1-PDC cell line growth inhibition [AhR];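 also: compound exposure lasted 7 days after spheroids had grown for 3 days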
- assay_conditions: second compound 1 µM; first compound 0.316 µM; stronger effect = lower value
assay_metric: viability, T/C (%)
Field: numeric (%). Do not append units.

Nc1ncn(C2CC(O)C(CO)O2)c(=O)n1 (stereo not drawn) + CC(CO)NC(=O)c1cc(-c2ccc(Cl)cc2)nn(-c2cnn(C)c2)c1=O :: 77.7
O=C(C=Cc1cccc(S(=O)(=O)Nc2ccccc2)c1)NO + Cc1ccccc1N=Nc1ccc(NC(=O)c2ccnn2C)c(C)c1 :: 111
O=C(C=Cc1cccc(S(=O)(=O)Nc2ccccc2)c1)NO + CC(CO)NC(=O)c1cc(-c2ccc(Cl)cc2)nn(-c2cnn(C)c2)c1=O :: 104
O=C(c1cc(Cc2n[nH]c(=O)c3ccccc23)ccc1F)N1CCN(C(=O)C2CC2)CC1 + CC(CO)NC(=O)c1cc(-c2ccc(Cl)cc2)nn(-c2cnn(C)c2)c1=O :: 93.4
Nc1ncn(C2CC(O)C(CO)O2)c(=O)n1 (stereo not drawn) + Cc1cncc(-c2nc(NCCc3c[nH]c4ccccc34)c3ncn(C(C)C)c3n2)c1 :: 110

input: Looking for the measured viability, T/C of CC(C)c1c(-c2ccccc2)nc2c(C#N)c[nH]n2c1=O + CC(CO)NC(=O)c1cc(-c2ccc(Cl)cc2)nn(-c2cnn(C)c2)c1=O , can you help?
output: 105

input: Follow-up entry: O=C(c1cc(Cc2n[nH]c(=O)c3ccccc23)ccc1F)N1CCN(C(=O)C2CC2)CC1 + Cc1cncc(-c2nc(NCCc3c[nH]c4ccccc34)c3ncn(C(C)C)c3n2)c1
output: 119

input: Follow-up entry: COc1ccc([C@@H](O)c2cc(-c3ncnc4cc(N5CCOCC5)ccc34)c(F)cc2Cl)nn1 + CC(CO)NC(=O)c1cc(-c2ccc(Cl)cc2)nn(-c2cnn(C)c2)c1=O
output: 94.2

----------
- Tested on: 699152-130-R-J1-PDC complex spheroid growth
- experimental_protocol: Anticancer human tumor 699152-130-R-J1-PDC cell line growth inhibition [AhR];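 also: compound exposure lasted 7 days after spheroids had grown for 3 days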
- assay_conditions: curve of first compound; second compound 3.16 µM
pIC50: −log10 of the molar value.
Property: pIC50; scope: individual compounds

Some entries whose results are on file:
O=C(C=Cn1cnc(-c2cc(C(F)(F)F)cc(C(F)(F)F)c2)n1)NNc1cnccn1 + Cc1ccccc1N=Nc1ccc(NC(=O)c2ccnn2C)c(C)c1 :: < 5.52
Cn1ncnc1C1c2n[nH]c(=O)c3cc(F)cc(c23)NC1c1ccc(F)cc1 (configuration not stated) + Cc1cncc(-c2nc(NCCc3c[nH]c4ccccc34)c3ncn(C(C)C)c3n2)c1 :: < 7.00
COc1cc(Nc2ncc3c(n2)-c2ccc(Cl)cc2C(c2c(F)cccc2OC)=NC3)ccc1C(=O)O + Cc1cncc(-c2nc(NCCc3c[nH]c4ccccc34)c3ncn(C(C)C)c3n2)c1 :: < 5.00
O=C(C=Cn1cnc(-c2cc(C(F)(F)F)cc(C(F)(F)F)c2)n1)NNc1cnccn1 + Cc1cncc(-c2nc(NCCc3c[nH]c4ccccc34)c3ncn(C(C)C)c3n2)c1 :: < 5.52
CC(C)c1c(-c2ccccc2)nc2c(C#N)c[nH]n2c1=O + CC(CO)NC(=O)c1cc(-c2ccc(Cl)cc2)nn(-c2cnn(C)c2)c1=O :: < 5.00

input: Looking for the measured pIC50 of COc1cc(Nc2ncc3c(n2)-c2ccc(Cl)cc2C(c2c(F)cccc2OC)=NC3)ccc1C(=O)O + Cc1ccccc1N=Nc1ccc(NC(=O)c2ccnn2C)c(C)c1 , can you help?
output: < 5.00

input: Follow-up entry: CC1COCCN1c1cc(-c2ccnn2C)c2ccnc(-c3ccn[nH]3)c2n1 (configuration not stated) + Cc1ccccc1N=Nc1ccc(NC(=O)c2ccnn2C)c(C)c1
output: < 6.00

----------
- System: 699152-130-R-J1-PDC complex spheroid growth
- experimental_protocol: Anticancer human tumor 699152-130-R-J1-PDC cell line growth inhibition [AhR];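 also: compound exposure lasted 7 days after spheroids had grown for 3 days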
- assay_conditions: second compound 1 µM; first compound 3.16 µM; stronger effect = lower value
Threshold 60%. viability, T/C below it: True. viability, T/C at it or above: False.

Look over these answered cases.
CC(C)c1c(-c2ccccc2)nc2c(C#N)c[nH]n2c1=O + Cc1cncc(-c2nc(NCCc3c[nH]c4ccccc34)c3ncn(C(C)C)c3n2)c1 :: False
Nc1ccn(C2OC(CO)C(O)C2(F)F)c(=O)n1 (stereo not given) + Cc1cncc(-c2nc(NCCc3c[nH]c4ccccc34)c3ncn(C(C)C)c3n2)c1 :: True
CC(C)c1c(-c2ccccc2)nc2c(C#N)c[nH]n2c1=O + Cc1ccccc1N=Nc1ccc(NC(=O)c2ccnn2C)c(C)c1 :: False
CC1(C)CCC(CN2CCN(c3ccc(C(=O)NS(=O)(=O)c4ccc(NCC5CCOCC5)c([N+](=O)[O-])c4)c(Oc4cnc5[nH]ccc5c4)c3)CC2)=C(c2ccc(Cl)cc2)C1 + Cc1ccccc1N=Nc1ccc(NC(=O)c2ccnn2C)c(C)c1 :: False

input: Find out if reported viability, T/C for COc1cc(C2c3cc4c(cc3C(OC3OC5COC(C)OC5C(O)C3O)C3COC(=O)C23)OCO4)cc(OC)c1O (stereo not given) + Cc1cncc(-c2nc(NCCc3c[nH]c4ccccc34)c3ncn(C(C)C)c3n2)c1 is less than 60%
output: False
